TEST_TARGET: SARS-CoV-2 Wuhan-Hu-1 RBD (SARS-CoV-2, Wuhan-Hu-1 (GenBank …, UniProt P0DTC2))
ASSAY_COMMENT: cell-based or functional assay
Flag rule - neutralisation IC50, Wuhan-Hu-1 pseudovirus less than 0.09 µg/mL flags Fulfilled; the remaining entries get Not fulfilled.

BINDER	CLASS
JR206 (antibody, V domains shown) VH: EVQLVQSGAEVKKPGESLKISCKGSGFNFSRYWIGWVRQMPGKGLEWMGIIYLGDSDTTYSPSFQGQVTISADKSISTAYLQWSSLKASDTAMFYCATRSGYFYGYETWGQGTLVTVSS VL: SYELTQPPSVSVAPGKTAKITCGGNNIGSKTVHWYQQRPGQAPVLVVYDNRDRPSGIPERFSGSNSGNTAALTISRVEAGDEADYYCQVWDSSSDHYVFGTGTKVTVL	Not fulfilled
JR328 (antibody, V domains shown) VH: EVQLVESGGGLIQPGGSLRLSCAASGVIVSRNYMSWVRQAPGKGLEWVAVIYSGGSTFYADSVKGRFTISRDDSKNTLFLQMNALRAEDTAVYYCARDGDYYGMDVWGRGTTVTVSS VL: DIQLTQSPSFLSASVGDRVTITCRASQGISNYLAWYQQKPGTAPRLLIYAAFTLQSGVPSRFSGSGSGTEFTLTISSLQPEDFATYYCQQLNTYPGFTFGPGTKVDIK	Fulfilled

[Q] # check: neutralisation IC50, Wuhan-Hu-1 pseudovirus < 0.09 µg/mL for JR041 (antibody, V domains shown) VH: EVQLVESGGGLVQPGRSLRLSCAASGFTFDDYAMYWVRQAPGKGLEWVSGISWNSGSIGYADSVKGRFTISRDNAKNSLYLQMNSLRAEDTALYYCAKDISYHTGTIDYWGQGTLVTVSS VL: QSALTQPASVSGSPGQSITISCTGTSSDIGGYNYVSWYQQHPGKAPKLMIYDVSNRPSGVSNRFSGSKSGNTASLTISGLQAEDEADYYCSSYTSSSTLGVGGGTKLTVL
[A] Fulfilled

[Q] Further, for JR054 (antibody, V domains shown) VH: QLQLQESGPRLMKPSETLSLTCSVSGGSISRSHYYWGWIRQPPGKGLEWIGSIYYNGSTYYNPSLRSRVTISVDTTKNQFSLKLSSVTAADTAEYYCARPGPSYYDRSGYNRAEYFQHWGQGTLVTVSS VL: IRMTQSPSSLSASVGDRVTITCQASQDISNYLNWYQQKPGKAPKLLIYDASNLETGVPPRFSGSGSGTDFTFTISSLQPEDFATYSCQQYDNLPLTFGGGTKVEIK ?
[A] Fulfilled

[Q] Consider next the binder JR150 (antibody, V domains shown) VH: QVQLVQSGAEVKKPGASVKVSCKASRYTFASYYMHWVRQAPGQGLEWMGIINPGGGSTSYAQNFQGRVSMTSDTSTSTVYMELRSLRSEDTAVYYCARDSEFVPTAHGAFEIWGQGTMVTVSS VL: EIVLTQSPATLSLSPGERATLSCRASQSVSSYLAWYQQKPGQAPRLLIYDASNRATGIPARFSGSGSGTDFTLTISSLEPEDFAVYYCQQRSNWLVTFGGGTKVEIK in the same way.
[A] Not fulfilled

[Q] Request: JR092 (antibody, V domains shown) VH: QVQLVESGGGLVKPGGSLRLSCAASGFTFSDYYMSWIRQAPGKGLEWVSYSSSRGSIIHYADSVKGRFTISRDNAKNSLCLQMNSLRAEDTAVYYCARATTPYSGYSMWGQGTLVTVSS VL: NFMLTQPHSVSESPGKTVTISCTGSSGSIASNYVQWYQQRPGSAPTTVIYEDNQRPSGVPDRFSGSIDSSSNSASLTISGLKTEDEADYYCQSYDSSNWVFGGGTKLTVL
[A] Not fulfilled

[Q] How about JR062 (antibody, V domains shown) VH: EVQLVESGGGLIQPGGSLRLSCAASGFSVSNNYMNWVRQAPGKGLEWLSVIYNAGTTYYAGSVKGRFTISKDNSKNTLYLQLNSLRPEDTAVYYCARGHTGVAALMTGAFDIWGQGTMVTVSS VL: QSALTQPPSASGSPGQSVTISCTGTSSDVGGYDYVSWYQQYPGKAPKLMIYEVSKRPSGVPDRFSGSKSGNTASLTVSGLQAEDEADYYCSSYAGNNNWVFGGGTKLTVL ?
[A] Fulfilled

[Q] Another: JR316 (antibody, V domains shown) VH: QVQLVQSGAEVKKPGSSVKVSCKASGGSFSTHGISWVRQAPGQGLEWMGGIIPISGRANYAQNFQGRVTITADESTKTAYMELSSLRSEDTAVYYCARDDRFCDTTKCYGLWFDPWGQGTLVTVSS VL: DIQMTQSPSSLSASVGDRVTITCRASQSISTYLNWYQQKPGKAPKVLIYAASTLQSGVPSRFSGSGSGTDFTLTISSLQPEDFATYYCQQTYSSPRAFGQGTKVEIK
[A] Fulfilled

[Q] Also, JR309 (antibody, V domains shown) VH: EVQLVESGGGLVQPGRSLRLSCAASGFTFDDYAIHWVRQAPGKGLEWVSGSSWNSGTIGYADSVKGRFTISRDNAKNSLYLQMNSLRAEDTALYYCAKDWGTGDYNSYYFDYWGQGTLVTVSS VL: SYELTQPPSVSVAPGKTARITCGGNNIGSKSVHWYQQKPGQAPVVVVYDDSDRPSGNPERFSGSNSGNTATLTIRRVEAGDEADYYCQVWDSNSDQYVFGTGTKVTVL please.
[A] Fulfilled

Cited source for all entries: paper PMC9253517
